tested on: CD2F1 mice, ip Colon 26 adenocarcinoma, median survival T/C; assay: NCI In Vivo Anticancer Drug Screen. Data for tumor model Colon 26 Adenocarcinoma (intraperitoneal) in CD2F1 (CDF1) mice; conditions: endpoint: median survival time; dose: 50.0 mg/kg/injection; schedule: Q04DX003 (ip); vehicle: saline with Tween-80
Inconclusive results and toxic doses are left out. Rule for the calls: active = survival T/C of 150% or more; inactive = T/C below 125% in these data.
Classes used: True (active), False (inactive)

compound: Nc1ccc(Cl)cc1N
class: False
--
compound: Cc1ccc(S(=O)(=O)N/N=C/C(=O)O)cc1
class: True
--
compound: Clc1ccc(C(c2ccccc2Cl)C(Cl)Cl)cc1 (stereo not given)
class: False
--
compound: COC(=O)C(F)C(Br)C(=O)OC (stereo not given)
class: False
--
compound: O=C(N/N=C\c1cc(Br)cc(Br)c1O)N/N=C/c1cc(Br)cc(Br)c1O
class: False

Data credit: PubChem BioAssay AID210
